CC50 at 120 h values, listed per item
test: Cytotoxicity against human MT4 cells assessed as reduction in cell viability incubated for 5 days by MTT assay; assay type: toxicity, cell-based; conditions: time 5 day
reported_metric: CC50 at 120 h

INSERT INTO results (compound, reported_metric, test_result) VALUES
  ('O=c1[nH]cnc2c1ncn2[C@H]1CC[C@@H](CO)O1 [DIDANOSINE]', 'CC50 at 120 h', '> 100 µM'),
  ('C[Se][C@H]1[C@H](O)[C@@H](CO[P@@](=O)(N[C@@H](C)C(=O)OC(C)C)Oc2ccccc2)O[C@H]1n1cnc2c(N)ncnc21', 'CC50 at 120 h', '> 100 µM'),
  ('C[Se][C@H]1[C@H](O)[C@@H](COP(=O)(N[C@@H](C)C(=O)OC(C)C)Oc2ccccc2)O[C@H]1n1cnc2c(N)nc(N)nc21 (stereo partly drawn)', 'CC50 at 120 h', '5.5 µM');

====

pEC50 values, listed per item
system: Human immunodeficiency virus 1; assay: Antiviral activity against lamivudine resistant HIV-1 harboring RT M184V mutant infected in human TZM-bl cells incubated for 48 hrs by steady glo reagent based […] luminometer analysis; type: functional, organism-based; details: Human immunodeficiency virus 1, TZM-bl
pEC50: −log10 of the molar value.
reported_metric: pEC50

INSERT INTO measurements (compound, reported_metric, test_result) VALUES
  ('C[Se][C@H]1[C@H](O)[C@@H](CO)O[C@H]1n1cnc2c(N)nc(N)nc21', 'pEC50', '< 4.00'),
  ('C[Se][C@H]1[C@H](O)[C@@H](CO)O[C@H]1n1cnc2c(=O)[nH]c(N)nc21', 'pEC50', '< 4.00'),
  ('C[Se][C@H]1[C@H](O)[C@@H](CO[P@@](=O)(N[C@@H](C)C(=O)OC(C)C)Oc2ccccc2)O[C@H]1n1cnc2c(N)ncnc21', 'pEC50', 5.24),
  ('C[Se][C@H]1[C@H](O)[C@@H](CO)O[C@H]1n1cnc2c(N)ncnc21', 'pEC50', '< 4.00'),
  ('COc1nc(N)nc2c1ncn2[C@@H]1O[C@H](CO)[C@@H](O)[C@@H]1[Se]C', 'pEC50', '< 4.70'),
  ('COc1nc(N)nc2c1ncn2[C@@H]1O[C@H](COP(=O)(N[C@@H](C)C(=O)OC(C)C)Oc2ccccc2)[C@@H](O)[C@@H]1[Se]C (stereo partly drawn)', 'pEC50', 4.34),
  ('Cc1cn([C@H]2C[C@H](N=[N+]=[N-])[C@@H](CO)O2)c(=O)[nH]c1=O [ZIDOVUDINE]', 'pEC50', 7.66),
  ('C[Se][C@H]1[C@H](O)[C@@H](CO)O[C@H]1n1cnc2c(N)nc(F)nc21', 'pEC50', '< 4.70');

====

assay: Cytotoxicity against human TZM-bl cells assessed as reduction in cell viability incubated for 48 hrs by MTT assay; assay type: toxicity, cell-based
CC50 at 48 h values, listed per item
reported_metric: CC50 at 48 h

INSERT INTO results (compound, reported_metric, test_result) VALUES
  ('C[Se][C@H]1[C@H](O)[C@@H](COP(=O)(N[C@@H](C)C(=O)OC(C)C)Oc2ccccc2)O[C@H]1n1ccc(=O)[nH]c1=O (stereo partly drawn)', 'CC50 at 48 h', '4 nM'),
  ('O=c1[nH]cnc2c1ncn2[C@H]1CC[C@@H](CO)O1 [DIDANOSINE]', 'CC50 at 48 h', '> 100000 nM'),
  ('C[Se][C@H]1[C@H](O)[C@@H](CO)O[C@H]1n1cnc2c(=O)[nH]c(N)nc21', 'CC50 at 48 h', '> 100000 nM'),
  ('C[Se][C@H]1[C@H](O)[C@@H](CO)O[C@H]1n1cc(C)c(=O)[nH]c1=O', 'CC50 at 48 h', '250 nM'),
  ('Cc1cn([C@H]2C[C@H](N=[N+]=[N-])[C@@H](CO)O2)c(=O)[nH]c1=O [ZIDOVUDINE]', 'CC50 at 48 h', '> 100000 nM'),
  ('C[Se][C@H]1[C@H](O)[C@@H](CO[P@@](=O)(N[C@@H](C)C(=O)OC(C)C)Oc2ccccc2)O[C@H]1n1cnc2c(N)ncnc21', 'CC50 at 48 h', '> 100000 nM'),
  ('Nc1ccn([C@@H]2CS[C@H](CO)O2)c(=O)n1 [LAMIVUDINE]', 'CC50 at 48 h', '> 100000 nM'),
  ('C[Se][C@H]1[C@H](O)[C@@H](CO)O[C@H]1n1ccc(=O)[nH]c1=O', 'CC50 at 48 h', '5 nM');
